- Run description: viability loss of HPDE-C7K cells – cell-based, fluorescence, HTS, primary screen (AID 431)
- Conditions: HPDE-C7K KRASV12 cells, Alamar Blue viability, 48 h; at 10 µM
The whole screen tested about 63,000 compounds, of which about 1,100 (1.7%) were called active.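 How the source made its calls: active means compounds whose percent cytotoxicity in the single-dose primary screen, scaled between solvent and toxic-drug controls, exceeds 50; inactive means the rest.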 This excerpt belongs to a sample that is enriched for actives. Entries with a potency or affinity are not part of this list.
Select the correct class. Options are active, inactive and nothing else.

Recorded results for 5 compounds are shown here.
Compound	Assigned class
COc1cc2c(cc1OC)C(C)N(C(=O)Cn1ncc3c1-c1ccccc1OC3)CC2 (centres undefined)	inactive
CCN(CC)CCOc1ncnc2c1oc1ccccc12	inactive
CCn1c(SCC(=O)c2cc(OC)ccc2OC)nc2c1c(=O)n(C)c(=O)n2C	inactive
CCN1CCN(c2ccc(NC(=O)c3cccc4ncccc34)cc2)CC1	inactive
Cc1nc2ccc(N)cc2s1	inactive

Write down the call the test reported for this compound. Item: CC(C)CNC(=O)c1c(N)n(/N=C/c2ccccn2)c2nc3ccccc3nc12
inactive

Write down the call the test reported for this compound. Item: CCC(C)NC(=O)c1c(N)n(/N=C/c2cccnc2)c2nc3ccccc3nc12 (centres undefined)
active

Write down the call the test reported for this compound. Item: CCc1ccc(OCC(=O)NCc2ccco2)c(Br)c1
inactive
